- Test system: TRITICUM AESTIVUM, CV. APOLLO
- Method: Preemergence herbicidal evaluation, TRZAWO (Wheat, Winter, CV. APOLLO)
- Assay type: in vivo
- Applied conditions: 0.500 kg/ha, rated four to five weeks after treatment

{"Input smiles": "COC(=O)Cn1c(=O)n(C)c(=O)n(-c2cc(N3C(=O)C4=C(CCCC4)C3=O)ccc2F)c1=O", "Herbicide rating (0-9) TRZAWO": 0.0}
{"Input smiles": "COC(=O)Cn1c(=O)n(C)c(=O)n(-c2cc(N3C(=O)C4=C(CCCC4)C3=O)c(Cl)cc2Cl)c1=O", "Herbicide rating (0-9) TRZAWO": 2.0}
{"Input smiles": "CCOC(=O)Cn1c(=O)n(CC(=O)OC(C)(C)C)c(=O)n(-c2ccc(F)c(N3C(=O)C4=C(CCCC4)C3=O)c2)c1=O", "Herbicide rating (0-9) TRZAWO": 0.0}
